Assay: chemical genetic growth profiling, strain panel (AID 1159580);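 note: tested at 20 µM; growth read once vehicle control cultures reached saturation at 30 °C; 1 = growth at the plate median or of vehicle wells; lower values mean less growth of the strain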
Details: S. cerevisiae deletion strains, growth OD, locus YOR231W, strain MKK1, active compounds read low
In all, about 5,500 compounds went through this assay and about 2,000 (36%) were called active. Roughly 18% stayed inconclusive and do not appear here. Some of the results follow.
Measured normalized growth, listed per entry.
READOUT LABEL: normalized growth

- O=C(O)CCC(=O)Nc1ccc(S(=O)(=O)Nc2nccs2)cc1: 1.07
- NC(N)=O: 0.993
- Cc1cc(C)cc(OCC2CNC(=O)O2)c1 (configuration not stated): 1.05
- NS(=O)(=O)c1cc2c(cc1Cl)NC(C1CC3C=CC1C3)NS2(=O)=O (configuration not stated): 1.06
- CC(=O)N=c1sc(S(N)(=O)=O)nn1C: 1.08
- c1ccc2c(c1)CN1CCCC1=N2: 1.02
- N#C/C(=C\c1cccc(O)c1)C(=O)O: 0.973

---

Measured normalized growth, listed per entry.
Assay: chemical genetic growth profiling, strain panel (AID 1159580)
Details: S. cerevisiae deletion strains, growth OD, locus YDL101C, strain DUN1, active compounds read low
Among all 5,500 compounds or so, about 2,000 (36%) were called active. Not shown: some 18% with an inconclusive outcome. The list shows a part of the results.
READOUT LABEL: normalized growth

* C=C1C2CC[C@@]3(C)[C@H](c4ccoc4)OC(=O)C[C@]13O[C@H]1CC(=O)C(C)(C)C(CC(=O)OC)[C@@]21C (some centres undefined) | 1
* CC1(C)C(=O)C=C[C@@]2(C)C1CC(=O)[C@@]1(C)C3=CC(=O)O[C@@H](c4ccoc4)[C@]3(C)CCC12 (some centres undefined) | 0.997
* C=C1C2=CC(=O)O[C@@H](c3ccoc3)[C@]2(C)CCC1[C@@]1(C)C=CC(=O)C(C)(C)[C@@H]1CC(=O)OC (some centres undefined) | 1.01
* Nc1cc(-c2ccncc2)c[nH]c1=O | 0.994

---

Measured normalized growth, listed per entry.
Assay: chemical genetic growth profiling, strain panel (AID 1159580);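 note: tested at 20 µM; growth read once vehicle control cultures reached saturation at 30 °C; 1 = growth at the plate median or of vehicle wells; lower values mean less growth of the strain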
Conditions: S. cerevisiae deletion strains, growth OD, locus YIR030C, strain dcg1, active compounds read low
Among all 5,500 compounds or so, about 2,000 (36%) were called active. Roughly 18% stayed inconclusive and do not appear here. Some of the results follow.
READOUT LABEL: normalized growth

• NCC(CC(=O)O)c1ccc(Cl)cc1 (centres undefined) = 1
• C=C1C2=CC(=O)O[C@@H](c3ccoc3)[C@]2(C)CCC1[C@@]1(C)C=CC(=O)C(C)(C)[C@@H]1CC(=O)OC (some centres undefined) = 1
• CC1(C)C(O)CC(O)C2(C)C1CC(O)C1(C)C2CCC2(C)C(c3ccoc3)OC(=O)C3OC321 (centres undefined) = 1.02
• CN(C)CCOC(=O)C(c1ccccc1)C1(O)CCCC1 (centres undefined) = 1.03
• C=C1C2CCC3(C)C(c4ccoc4)OC(=O)CC13OC1CC(OC(C)=O)C(C)(C)C(CC(=O)OC)C12C (centres undefined) = 0.998
• CC(=O)O[C@H]1CC[C@]2(C)C3=CC(=O)[C@@]4(C)C(C[C@@H]5OC6(OCC(C)CC6Br)[C@@H](C)[C@@H]54)C3CC[C@H]2C1 (some centres undefined) = 0.996
• C=C1C(C2(C)C=CC(=O)C(C)(C)C2CC(=O)OC)CC[C@@]2(C)[C@H](c3ccoc3)OC(=O)C3OC132 (some centres undefined) = 0.977
• COC(=O)CCCOc1ccc(Cl)cc1Cl = 0.994
• O=C(O)CCCOc1ccc(Cl)cc1Cl = 1.01
• COc1cc([C@H]2Oc3cc([C@H]4Oc5cc(O)cc(O)c5C(=O)[C@@H]4O)ccc3O[C@@H]2CO)ccc1O = 0.981
• O=C(O)c1ccccc1C(=O)Nc1ccc(S(=O)(=O)Nc2nccs2)cc1 = 0.993
• Cc1cc(O)c(C=O)c2c1C(=O)Oc1c(C)c(O)c3c(c1O2)C(O)OC3=O (centres undefined) = 0.995
• O=c1[nH]cnc2[nH]ncc12 = 1.01
• CN(C)CCOC(=O)COc1ccc(Cl)cc1 = 1.03
• C=C1C2CC[C@@]3(C)[C@H](c4ccoc4)OC(=O)C[C@]13O[C@H]1CC(O)C(C)(C)C(CC(=O)OC)[C@@]21C (some centres undefined) = 1.01
• C=C1C2CC[C@@]3(C)[C@H](c4ccoc4)OC(=O)C[C@]13O[C@H]1CC(=O)C(C)(C)C(CC(=O)OC)[C@@]21C (some centres undefined) = 1
• NC(Cc1ccc(F)cc1)C(=O)O (centres undefined) = 1.02
• COc1cc(C(=O)O)c2c(c1C)OC(=O)c1c(C)cc(O)c(C=O)c1O2 = 0.983
• CC(=O)O[C@H]1CC[C@]2(C)C3C(=O)[C@@H](OC(C)=O)[C@@]4(C)C(C[C@@H]5O[C@]6(CCC(C)CO6)[C@@H](C)[C@@H]54)C3CC[C@H]2C1 (some centres undefined) = 0.988

---

Experiment: chemical genetic growth profiling, strain panel (AID 1159580);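 note: tested at 20 µM; growth read once vehicle control cultures reached saturation at 30 °C; 1 = growth at the plate median or of vehicle wells; lower values mean less growth of the strain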
Conditions: S. cerevisiae deletion strains, growth OD, locus YOL012C, strain htz1
Screen size: about 5,500 compounds; about 2,000 (36%) were called active. Not shown: some 18% with an inconclusive outcome. Some of the results follow.
READOUT LABEL: normalized growth

* COC(=O)CCCOc1ccc(Cl)cc1Cl | 1.55
* CN(C)CCOC(=O)C(c1ccccc1)C1(O)CCCC1 (stereo not drawn) | 1.15
* N#C/C(=C\c1cccc(O)c1)C(=O)O | 1.3
* C[C@]12C=CC(=O)C=C1CCC1C3C[C@@H](O)[C@](O)(C(=O)CO)[C@@]3(C)C[C@H](O)[C@@]12F (stereo partly drawn) | 1.1
* CCCCC[C@H](CC(=O)NO)C(=O)N[C@H](C(=O)N1CCC[C@H]1CO)C(C)C | 1.13
* COC(=O)c1c(C)cc(OC(=O)c2c(C)c(Cl)c(O)c(C=O)c2O)c(C)c1O | 0.881
* CCN(CCCc1ccccc1)CCCc1ccccc1 | 0.929
* COc1c2ccccc2nc2occc12 | 1.22
* COc1cc([C@@H]2c3cc4c(cc3[C@H](OC(C)=O)[C@H]3COC(=O)[C@@H]23)OCO4)cc(OC)c1OC | 0.847
* CN(C)CCOC(=O)COc1ccc(Cl)cc1 | 1.88
* COc1cc(C)c(C(=O)Oc2cc(C)c(C(=O)O)c(O)c2C)c(OC)c1C | 1.06
* COc1ccc(C(=O)CC(=O)c2ccc(C(C)(C)C)cc2)cc1 | 1.06
* CCCC(CCC)C(=O)O | 1.46
* NC(N)=NCCC[C@@H](NC(=O)[C@@H](N)Cc1ccc(O)cc1)C(=O)O | 1.88
* COc1cc(OC)c(OC)cc1C=O | 2.03
* Cc1cc(C)cc(OCC2CNC(=O)O2)c1 (stereo not drawn) | 1.42
* CC1(C)C(O)CC(O)C2(C)C1CC(O)C1(C)C2CCC2(C)C(c3ccoc3)OC(=O)C3OC321 (stereo not drawn) | 0.879
* O=C(O)c1ccccc1C(=O)Nc1ccc(S(=O)(=O)Nc2nccs2)cc1 | 0.647
* CCCC(C(=O)OCCN(CC)CC)(c1ccccc1)c1ccccc1 | 0.951
* NNCCc1ccccc1 | 0.89
* CN(C(=O)CN(CCO)CC(=O)N(C)C(C)(C)Cc1ccccc1)C(C)(C)Cc1ccccc1 | 0.857
* COC(=O)c1c(C)cc(OC(=O)c2c(C)cc(O)c(C=O)c2O)c(C)c1O | 0.816
* CCN(CC)CCOC(=O)C(c1ccccc1)c1ccccc1 | 0.836

---

Measured normalized growth, listed per entry.
Experiment: chemical genetic growth profiling, strain panel (AID 1159580);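 note: tested at 20 µM; growth read once vehicle control cultures reached saturation at 30 °C; 1 = growth at the plate median or of vehicle wells; lower values mean less growth of the strain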
Conditions: S. cerevisiae deletion strains, growth OD, locus YOL147C, strain pex11, active compounds read low
Among all 5,500 compounds or so, about 2,000 (36%) were called active. About 18% were inconclusive and are not listed. The list shows a part of the results. Where a SMILES comes first, the peptide text is derived from it.
READOUT LABEL: normalized growth

- NC(N)=NCCC[C@@H](NC(=O)[C@@H](N)Cc1ccc(O)cc1)C(=O)O: 1.01
- NCCCCC(N)C(=O)NC(Cc1ccc(O)cc1)C(=O)NC(CCCCN)C(=O)O (stereo not drawn) (H-Lys-Tyr-Lys-OH; configuration not given here): 0.995
- COc1c2ccoc2nc2c(OC)c(OCC(O)C(C)(C)O)ccc12 (stereo unspecified): 0.996
- NC(N)=NCCCC(NC(=O)C(N)Cc1ccc(O)cc1)C(=O)O (stereo unspecified): 0.991
- CC1(C)C(O)CC(O)C2(C)C1CC(O)C1(C)C2CCC2(C)C(c3ccoc3)OC(=O)C3OC321 (stereo unspecified): 1.01
- COc1c2ccccc2nc2occc12: 0.924

Source: PubChem BioAssay AID1159580
